Reference source: PubChem BioAssay AID2629

# experimentalTarget: Protein LANA1 (Human herpesvirus 8 type P (isolate GK18))
# protocolDescription: blockers of LANA interaction with H2A/H2B – biochemical, FP readout, HTS, primary screen (AID 2629)
# measurementParameters: cell-free LANA-H2A/H2B peptide, fluorescence polarization, concentration not given here
Out of some 320,000 compounds screened, about 1,900 (0.59%) were called active. Cut-off read from the data, not from the text of the source: active = inhibition mostly above about 10% (no sharp cut-off); inactive = mostly below about 6.7%. What follows is part of a selection rich in actives, with near analogues and random picks from the rest.
# output must be one of y (active), n (inactive)

compound | experimentalTarget | qualitativeLabel
COc1ccccc1Oc1ccc(S(=O)(=O)Nc2cccnc2)cc1 | Protein LANA1 (Human herpesvirus 8 type P (isolate GK18)) | n
O=C1C2(c3ccccc3)CN(CCCO)CC1(c1ccccc1)CN(CCCO)C2 | Protein LANA1 (Human herpesvirus 8 type P (isolate GK18)) | n
c1ccc2cc(CCCc3cc4ccccc4cn3)ncc2c1 | Protein LANA1 (Human herpesvirus 8 type P (isolate GK18)) | n

How did this test come out for COc1ccc(NC(=O)CCCN2C(=O)C(c3ccccc3)Oc3cccnc32)cc1 (centres undefined) ? y

###

Provide the recorded inhibition for the entries that follow.
# experimentalTarget: Protein LANA1 (Human herpesvirus 8 type P (isolate GK18))
# protocolDescription: blockers of LANA interaction with H2A/H2B – biochemical, FP readout, HTS, primary screen (AID 2629)
# measurementParameters: cell-free LANA-H2A/H2B peptide, fluorescence polarization, active compounds read high, concentration not given here
The campaign covered roughly 320,000 compounds. About 1,900 (0.59%) were called active. The sample holds actives, similar compounds and a random draw of the others, so the mix is not that of the screen.
Numbers only, in %.

// known answers, use as guide
compound | assayMetric | observedMeasurement
O=C(Nc1ccccc1F)c1ccc2c(c1)OCO2 | inhibition | -1.38
COc1ccc(S(=O)(=O)Nc2cccnc2)c(Cl)c1Cl | inhibition | 12.6
CC(C)C1N=C2c3ccccc3N=C(SCC(=O)c3ccc(O)c(O)c3)N2C1=O (stereo not given) | inhibition | 13.1
CCOc1ccc(CCNC(=O)COC(=O)C2CCN(c3ccc(C(F)(F)F)cn3)CC2)cc1OCC | inhibition | 2.54
Cc1ccc(SC(C)C(=O)NCc2ccc(F)cc2)cc1 (stereo not given) | inhibition | -1.45
CC1(C)CC(=O)C(C2c3ccccc3S(=O)(=O)c3ccccc32)C(=O)C1 | inhibition | -4.3
CCCCN=C1N/C(=C\c2ccco2)C(=O)N1c1ccccc1 | inhibition | -4.75
O=C(Cn1nnc2ccccc2c1=O)Nc1cc(C(F)(F)F)ccc1N1CCOCC1 | inhibition | 15.8

Hi! Can you tell me inhibition for each of these compounds?
1. Cc1ccc2cc(CCNC(=O)c3ccc4c(c3)OCO4)c(=O)[nH]c2c1
2. O=C(CSC1=Nc2ccccc2C2=NC(CC(=O)NCc3ccco3)C(=O)N12)NCc1ccco1 (stereo not given)

[-1.83, -2.02]
